test system: non-senescent control IMR90 ER:RAS cells; test: Nuclei count (Hoechst, high content imaging) senolytic assay, OIS model, non-senescent control cells; assay type: cell-based, human; settings: Control, log (dose) [M] -6.33, 72 h, mean n=3 (Fig 3C)
measurement-label: Mean % Cell Survival (%)
Answers are plain numbers, in %.

# compound, Mean % Cell Survival [%]
data = [
    ("CC(C)=CCc1c(O)cc2oc3cc(O)c(O)c(CC=C(C)C)c3c(=O)c2c1O [Gamma mangostin, gamma mangostin]", 94.1184),
]

For the 3 compounds below, give their Mean % Cell Survival values.
1. Cc1c(NC(=O)OC[C@@H]2COCCN2)cn2ncnc(Nc3ccc4c(cnn4Cc4cccc(F)c4)c3)c12.Cl.Cl [BMS 599626 2HCL, BMS 599626 dihydrochloride]
2. CO[C@H]1C[C@H](O[C@H]2CC[C@]3(C)[C@H]4CC[C@]5(C)[C@@H](C6=CC(=O)OC6)CC[C@]5(O)[C@@H]4CC[C@]3(O)C2)O[C@H](C)[C@H]1O[C@@H]1O[C@H](CO)[C@@H](O)[C@H](O)[C@H]1O [Periplocin, periplocin]
3. C=Cc1c(C)c2cc3nc(cc4[nH]c(cc5nc(cc1[nH]2)C(C)=C5CCC(=O)O)c(CCC(=O)OC)c4C)[C@@]1(C)C3=CC=C(C(=O)OC)[C@H]1C(=O)OC [Verteporfin, verteporfin, reference compound]

Response:
1. 100.948
2. 43.2104
3. 109.784
